Experiment: Binding affinity to Tel-26nt G-rich DNA (unknown origin) assessed as change in melting temperature at 4 uM by UV-vis spectrophotometry (reference value: 38.33 +/- 0.07 degreeC)
EXPERIMENTAL_ENDPOINT: Tm (°C)
Quick note: give the figure in °C, leave out the unit.

For orientation, consider the following solved cases.
> print(dat)
                              smiles.string  experimental.endpoint  number
1  CN(C)CCCn1cc(C=C2c3cccnc3-c3ncccc32)c(-c2ccc(Br)cc2)n1                     Tm    53.1
2  O=C1C(=C2c3cccnc3-c3ncccc32)SC(=S)N1Cc1nnc(-c2ccc(Br)cc2)o1                     Tm    56.1
3  CN(C)CCCn1cc(C=C2c3cccnc3-c3ncccc32)c(-c2ccc(Cl)cc2)n1                     Tm    45.7

Lab note: CN(C)CCCn1cc(C=C2c3cccnc3-c3ncccc32)c(-c2ccc(F)cc2)n1 gave Tm of 44
